- measurementDescription: activity coefficient (dimensionless); of the first substance listed, at infinite dilution; xn = mol fraction of the nth substance listed
- conditionNotes: 328.15 K; Liquid; Chromatography; x1 = 0
Parameter threshold = 4. Response is met when activity coefficient meets or exceeds it, else not met.

Consider the worked cases shown below.
[
  {
    "compound": "CCCCO [butan-1-ol] + CCCCCCn1cc[n+](C)c1.N#C[B-](C#N)(C#N)C#N",
    "assignedClass": "not met"
  },
  {
    "compound": "CCOC(C)(C)C [2-ethoxy-2-methylpropane] + CCCCCCn1cc[n+](C)c1.N#C[B-](C#N)(C#N)C#N",
    "assignedClass": "not met"
  },
  {
    "compound": "C1CCCC1 [cyclopentane] + CCCCCCn1cc[n+](C)c1.N#C[B-](C#N)(C#N)C#N",
    "assignedClass": "met"
  }
]

Req: Is the recorded value of activity coefficient equal to or greater than 4 for this compound? C=C(C)c1ccccc1 [(1-methylethenyl)benzene] + CCCCCCn1cc[n+](C)c1.N#C[B-](C#N)(C#N)C#N
Resp: not met

Req: Is the recorded value of activity coefficient equal to or greater than 4 for this compound? CCCCCCCC [octane] + CCCCCCn1cc[n+](C)c1.N#C[B-](C#N)(C#N)C#N
Resp: met

Source listed as the NIST ThermoML archive (doi:10.1016/j.jct.2011.11.025).
